Below, each entry is listed alongside its reported pIC50.
Experimental system: Acetylcholinesterase (Rattus norvegicus)
Sequence (P37136 whole entry): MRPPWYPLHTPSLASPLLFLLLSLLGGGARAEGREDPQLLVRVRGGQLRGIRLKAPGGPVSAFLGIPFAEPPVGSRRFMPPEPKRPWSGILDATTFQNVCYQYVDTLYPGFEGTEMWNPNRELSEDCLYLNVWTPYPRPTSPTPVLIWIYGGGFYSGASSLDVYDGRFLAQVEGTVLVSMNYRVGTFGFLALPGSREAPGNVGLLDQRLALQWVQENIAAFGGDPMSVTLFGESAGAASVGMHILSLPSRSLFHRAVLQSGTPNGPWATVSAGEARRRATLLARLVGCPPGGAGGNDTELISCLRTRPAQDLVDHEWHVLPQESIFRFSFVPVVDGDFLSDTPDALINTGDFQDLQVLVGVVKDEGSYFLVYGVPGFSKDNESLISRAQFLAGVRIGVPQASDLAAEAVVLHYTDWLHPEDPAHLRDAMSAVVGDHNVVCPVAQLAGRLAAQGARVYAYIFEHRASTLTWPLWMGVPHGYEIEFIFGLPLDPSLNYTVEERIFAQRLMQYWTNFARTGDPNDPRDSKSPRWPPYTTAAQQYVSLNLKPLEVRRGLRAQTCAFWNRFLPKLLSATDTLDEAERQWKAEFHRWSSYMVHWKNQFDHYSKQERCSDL
pIC50: −log10 of the molar value.

{"Molecule": "COc1ccccc1N1CCN(CCNCc2ccc(CN3CCCCC3)o2)C1=C(C#N)C#N", "Experimental system": "Acetylcholinesterase (Rattus norvegicus)", "pIC50": 7.18}
{"Molecule": "Cc1cccc(N2CCN(CCNCc3ccc(CN4CCCCC4)o3)C2=C(C#N)C#N)c1", "Experimental system": "Acetylcholinesterase (Rattus norvegicus)", "pIC50": 7.89}
{"Molecule": "N#CC(C#N)=C1NCCN1CCNCc1ccc(CN2CCCCC2)o1", "Experimental system": "Acetylcholinesterase (Rattus norvegicus)", "pIC50": 7.52}
{"Molecule": "N#CC(C#N)=C1N(CCNCc2ccc(CN3CCCCC3)o2)CCN1c1ccccc1", "Experimental system": "Acetylcholinesterase (Rattus norvegicus)", "pIC50": 7.85}
{"Molecule": "COc1cccc(N2CCN(CCNCc3ccc(CN4CCCCC4)o3)C2=C(C#N)C#N)c1", "Experimental system": "Acetylcholinesterase (Rattus norvegicus)", "pIC50": 7.85}
{"Molecule": "COc1ccc(N2CCN(CCNCc3ccc(CN4CCCCC4)o3)C2=C(C#N)C#N)cc1", "Experimental system": "Acetylcholinesterase (Rattus norvegicus)", "pIC50": 7.72}
{"Molecule": "Cc1ccc(N2CCN(CCNCc3ccc(CN4CCCCC4)o3)C2=C(C#N)C#N)cc1", "Experimental system": "Acetylcholinesterase (Rattus norvegicus)", "pIC50": 8.66}
